Target: T1, 4H72-bA
T1 chain: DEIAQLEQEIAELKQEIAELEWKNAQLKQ
Test: two-hybrid library CCNG1;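 also: natural log of median RNA to DNA barcode read ratio; higher means stronger binding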
Would you kindly list interaction score for each of these binders?
Answers are plain numbers.

Example entries and their recorded answers appear below.
1) DEIAQLKQENAELEQKIAELKWKNAQLEQ [4H687-bA] = -0.595
2) DEIAQLEQKNAELKQEIAELKWKIAQLKQ [4H462-bA] = 0.312
3) DKIAQLKQENAELEQEIAELKWEIAQLEQ [4H2697-bA] = -1.03
4) DENAQLEQKNAELEQKIAELEWKIAQLKQ [4H1446-bA] = 1.16
5) DEIAQLKQEIAELKQENAELKWKNAQLEQ [4H607-bA] = -0.746
6) DKNAQLEQEIAELKQKNAELEWEIAQLEQ [4H3185-bA] = -1.82

Reported interaction score, binder DEIAQLKQEIAELEQKNAELEWKNAQLKQ [4H568-bA] : ____
-0.657
